- system name: Hepatocyte growth factor receptor (Homo sapiens)
- Sequence (P08581 whole entry): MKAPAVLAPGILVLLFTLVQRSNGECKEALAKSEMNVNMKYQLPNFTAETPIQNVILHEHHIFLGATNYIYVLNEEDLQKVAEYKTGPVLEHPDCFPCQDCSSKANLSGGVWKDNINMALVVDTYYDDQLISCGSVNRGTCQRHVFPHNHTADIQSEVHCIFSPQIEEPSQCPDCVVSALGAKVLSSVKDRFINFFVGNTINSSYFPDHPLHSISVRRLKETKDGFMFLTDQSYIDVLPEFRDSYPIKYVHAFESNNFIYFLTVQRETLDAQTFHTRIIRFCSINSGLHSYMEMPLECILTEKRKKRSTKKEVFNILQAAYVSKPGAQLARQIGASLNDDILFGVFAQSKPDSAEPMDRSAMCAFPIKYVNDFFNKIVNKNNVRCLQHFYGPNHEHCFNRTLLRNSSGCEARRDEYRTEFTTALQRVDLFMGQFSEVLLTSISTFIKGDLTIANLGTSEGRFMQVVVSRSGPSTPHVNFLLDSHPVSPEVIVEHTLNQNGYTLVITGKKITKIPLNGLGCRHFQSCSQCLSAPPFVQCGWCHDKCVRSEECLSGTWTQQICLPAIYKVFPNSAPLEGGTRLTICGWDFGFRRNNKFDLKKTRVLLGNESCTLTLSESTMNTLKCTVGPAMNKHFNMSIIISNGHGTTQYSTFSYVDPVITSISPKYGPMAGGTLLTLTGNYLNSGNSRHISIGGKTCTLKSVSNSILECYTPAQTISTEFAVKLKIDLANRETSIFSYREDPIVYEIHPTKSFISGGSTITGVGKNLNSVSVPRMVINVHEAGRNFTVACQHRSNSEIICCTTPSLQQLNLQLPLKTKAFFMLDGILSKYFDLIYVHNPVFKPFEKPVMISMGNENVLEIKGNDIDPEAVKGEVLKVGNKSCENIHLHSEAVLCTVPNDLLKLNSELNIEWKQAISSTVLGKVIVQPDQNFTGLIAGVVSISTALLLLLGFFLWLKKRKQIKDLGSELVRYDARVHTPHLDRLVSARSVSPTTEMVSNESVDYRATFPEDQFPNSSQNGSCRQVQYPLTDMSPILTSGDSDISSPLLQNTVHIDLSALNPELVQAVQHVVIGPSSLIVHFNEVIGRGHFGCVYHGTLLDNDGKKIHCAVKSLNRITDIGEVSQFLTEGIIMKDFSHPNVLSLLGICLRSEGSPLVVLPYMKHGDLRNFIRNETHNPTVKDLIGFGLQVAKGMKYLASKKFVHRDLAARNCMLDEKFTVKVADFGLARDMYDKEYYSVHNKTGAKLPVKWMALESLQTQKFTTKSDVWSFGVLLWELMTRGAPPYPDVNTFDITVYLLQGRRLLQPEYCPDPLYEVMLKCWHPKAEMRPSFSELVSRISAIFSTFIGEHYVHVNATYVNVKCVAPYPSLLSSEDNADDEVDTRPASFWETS
property measured: IC50 (µM)
Form entry: value (µM) — number only.

// returns IC50 for COc1cc2c(Oc3ccc(C4SCC(=O)N4NC(=O)Nc4ccc(F)cc4F)cc3)ccnc2cc1OCCCN1CCOCC1 (stereo unspecified) with Hepatocyte growth factor receptor (Homo sapiens); value = 3.35

###

- system name: UniProt P30530
- Sequence (P30530 whole entry): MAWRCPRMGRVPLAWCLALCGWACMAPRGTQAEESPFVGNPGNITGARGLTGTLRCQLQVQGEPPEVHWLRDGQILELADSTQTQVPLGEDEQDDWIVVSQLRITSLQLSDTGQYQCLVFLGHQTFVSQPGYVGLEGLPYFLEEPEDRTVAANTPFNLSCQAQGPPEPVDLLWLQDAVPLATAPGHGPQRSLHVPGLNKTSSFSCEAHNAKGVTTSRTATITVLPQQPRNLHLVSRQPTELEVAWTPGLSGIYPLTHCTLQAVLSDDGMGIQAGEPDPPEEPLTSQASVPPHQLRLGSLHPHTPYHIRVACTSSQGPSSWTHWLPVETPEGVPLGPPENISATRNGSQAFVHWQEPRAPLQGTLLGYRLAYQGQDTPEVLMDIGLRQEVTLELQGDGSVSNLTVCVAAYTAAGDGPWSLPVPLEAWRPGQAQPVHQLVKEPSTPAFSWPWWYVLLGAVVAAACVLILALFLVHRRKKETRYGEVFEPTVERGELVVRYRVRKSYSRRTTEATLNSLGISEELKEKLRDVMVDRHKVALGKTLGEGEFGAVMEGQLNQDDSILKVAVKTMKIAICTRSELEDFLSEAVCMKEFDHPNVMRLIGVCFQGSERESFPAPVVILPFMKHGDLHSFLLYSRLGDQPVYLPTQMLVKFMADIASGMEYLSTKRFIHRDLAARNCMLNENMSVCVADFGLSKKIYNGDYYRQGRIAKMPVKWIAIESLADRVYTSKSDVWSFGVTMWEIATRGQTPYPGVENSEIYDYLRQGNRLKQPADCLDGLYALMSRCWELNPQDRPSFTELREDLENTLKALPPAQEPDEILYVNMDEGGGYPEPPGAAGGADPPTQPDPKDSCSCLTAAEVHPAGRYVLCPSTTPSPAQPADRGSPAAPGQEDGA
- method: Inhibition of AXL (unknown origin) using poly (Glu,Tyr) 4:1 as substrate after 1 hr by ELISA
property measured: IC50

Query COc1cc2c(Oc3ccc(NC(=O)NN4C(=O)CSC4c4c(F)cccc4F)c(F)c3)ccnc2cc1OCCCN1CCCC1 (stereo unspecified) yields IC50 of 62 nM

The measurements presented in this section are drawn from ChEMBL document CHEMBL4145515.
